# System: HEK-293T
# Test details: Multiplex assay against HEK293T
# Assay type: toxicity, cell-based
# Condition parameters: human, 12 h, 10 µM, compound concentration 10 uM, replicate 1
Outcome measure: Population Normal (%)
Note: unit % is implicit; provide only the numeric part.

Entry CC[C@H](C)C(=O)O[C@H]1C[C@@H](C)C=C2C=C[C@H](C)[C@H](CC[C@@H]3C[C@@H](O)CC(=O)O3)[C@H]21 under HEK-293T had Population Normal (%) of 85

Entry C=CC(=O)Nc1cc2c(Nc3ccc(F)c(Cl)c3)ncnc2cc1OCCCN1CCOCC1.Cl.Cl [CANERTINIB DIHYDROCHLORIDE] under HEK-293T had Population Normal (%) of 86

Entry CN1CCN(c2ccc(OC(F)(F)F)c(Nc3ncc4c(n3)-c3c(c(C(N)=O)nn3CCO)CC4)c2)CC1 under HEK-293T had Population Normal (%) of 87

Entry c1cn2cc(-c3ccc4cn[nH]c4c3)nc(Nc3ccc(N4CCOCC4)cc3)c2n1 under HEK-293T had Population Normal (%) of 72

====

Please respond with reported Population Healthy Nuclei (%) for every item in the list.
# System: HEK-293T
# Test details: Multiplex assay against HEK293T
# Type: toxicity, cell-based
# Condition parameters: human, 24 h, 1 µM, compound concentration 1 uM, replicate 1
Note: unit % is implicit; provide only the numeric part.

// recorded Population Healthy Nuclei (%) for C[C@@H](NCCCc1cccc(C(F)(F)F)c1)c1cccc2ccccc12.Cl [CINACALCET HYDROCHLORIDE] : 61

// recorded Population Healthy Nuclei (%) for CN1CCC[C@@H]1CCO[C@](C)(c1ccccc1)c1ccc(Cl)cc1.O=C(O)/C=C/C(=O)O [CLEMASTINE FUMARATE] : 18

// recorded Population Healthy Nuclei (%) for COc1ncc(-c2ccc3nccc(-c4ccnnc4)c3c2)cc1NS(=O)(=O)c1ccc(F)cc1F : 6

// recorded Population Healthy Nuclei (%) for OC1(c2ccc(Cl)cc2)CCN(Cc2c[nH]c3ccccc23)CC1 : 30

// recorded Population Healthy Nuclei (%) for COc1cc(-n2cnc3cc(-c4ccc(Cl)cc4)sc3c2=O)ccc1OCCN1CCCC1 : 37

// recorded Population Healthy Nuclei (%) for Cl.N#Cc1ccc2[nH]cc(CCCCN3CCN(c4ccc5oc(C(N)=O)cc5c4)CC3)c2c1 [VILAZODONE HYDROCHLORIDE] : 58

// recorded Population Healthy Nuclei (%) for NC(=O)Nc1cc(-c2cccc(F)c2)sc1C(=O)N[C@H]1CCCNC1 : 42

// recorded Population Healthy Nuclei (%) for Cc1nc(-c2cn3c(n2)-c2ccc(-c4cnn(C(C)(C)C(N)=O)c4)cc2OCC3)n(C(C)C)n1 : 53

====

# System: Fibroblast
# Test details: Multiplex assay against human fibroblast
# Assay type: toxicity, cell-based
# Condition parameters: 24 h, 1 µM, compound concentration 1 uM, replicate 2
Outcome measure: Population Mitochondria Different-Phenotype (%)
Note: unit % is implicit; provide only the numeric part.

// recorded Population Mitochondria Different-Phenotype (%) for Cc1nc(Nc2n[nH]c3c2CN(C(=O)N[C@H](CN(C)C)c2ccccc2)C3(C)C)c2sccc2n1 : 10

// recorded Population Mitochondria Different-Phenotype (%) for C=CC(=O)Nc1ccc2ncnc(Nc3ccc(OCc4cccc(F)c4)c(Cl)c3)c2c1.Cc1ccc(S(=O)(=O)O)cc1 : 8

// recorded Population Mitochondria Different-Phenotype (%) for C=CC(=O)Nc1cccc(C(=O)Nc2ccc(Nc3cc(-c4[nH]c(SC)nc4C)ccn3)cc2)c1 : 10

// recorded Population Mitochondria Different-Phenotype (%) for Cc1c(-c2ccc(O)cc2)n(Cc2ccc(OCCN3CCCCCC3)cc2)c2ccc(O)cc12 : 6

====

Please respond with reported Population Membrane Permeable-Phenotype (%) for every item in the list.
# System: Fibroblast
# Test details: Multiplex assay against human fibroblast
# Assay type: toxicity, cell-based
# Condition parameters: 12 h, 1 µM, compound concentration 1 uM, replicate 1
Note: unit % is implicit; provide only the numeric part.

// recorded Population Membrane Permeable-Phenotype (%) for O=C1NCN(c2ccccc2)C12CCN(CCCOc1ccc(F)cc1)CC2 [SPIRAMIDE] : 22

// recorded Population Membrane Permeable-Phenotype (%) for Cc1nc(-c2cn3c(n2)-c2ccc(-c4cnn(C(C)(C)C(N)=O)c4)cc2OCC3)n(C(C)C)n1 : 7

// recorded Population Membrane Permeable-Phenotype (%) for CC(C)(O)CNc1ncc(-c2ccnc(Nc3ccnc(Cl)c3)n2)c(CC2CC2)n1 : 35

// recorded Population Membrane Permeable-Phenotype (%) for C[C@@]1(C(=O)Nc2ccc(F)nc2)CCCN1c1nc(Nc2cc(C3CC3)n[nH]2)c2cccn2n1 : 18

// recorded Population Membrane Permeable-Phenotype (%) for Cc1[nH]c(/C=C2\C(=O)Nc3ccc(S(=O)(=O)N(C)c4cccc(Cl)c4)cc32)c(C)c1C(=O)N1CCN(C)CC1 : 40

// recorded Population Membrane Permeable-Phenotype (%) for Cc1cc(C)cc(-c2cnc3cc(Cl)c(-c4cccc(O)c4)cc3c2OCCCN)c1 : 38

// recorded Population Membrane Permeable-Phenotype (%) for CN1CCN(c2ccc(OC(F)(F)F)c(Nc3ncc4c(n3)-c3c(c(C(N)=O)nn3CCO)CC4)c2)CC1 : 29

// recorded Population Membrane Permeable-Phenotype (%) for C=CC(=O)Nc1cccc(C(=O)Nc2ccc(Nc3cc(-c4[nH]c(SC)nc4C)ccn3)cc2)c1 : 28

// recorded Population Membrane Permeable-Phenotype (%) for c1cn2cc(-c3ccc4cn[nH]c4c3)nc(Nc3ccc(N4CCOCC4)cc3)c2n1 : 20

// recorded Population Membrane Permeable-Phenotype (%) for COc1cc(-n2cnc3cc(-c4ccc(Cl)cc4)sc3c2=O)ccc1OCCN1CCCC1 : 23

====

# System: U2OS
# Test details: Multiplex assay against U2OS
# Type: toxicity, cell-based
# Condition parameters: human, 12 h, 1 µM, compound concentration 1 uM, replicate 2
Each record is given fulfilled if its reported Population Mitochondria Different-Phenotype (%) is strictly below 20%. Records at or above 20% are given not fulfilled.

Q. Is the reported Population Mitochondria Different-Phenotype (%) for NC(=O)Nc1cc(-c2cccc(F)c2)sc1C(=O)N[C@H]1CCCNC1 strictly below 20%?
A. fulfilled

Q. Is the reported Population Mitochondria Different-Phenotype (%) for CCN(CC)CCCCNc1ncc2cc(-c3cc(OC)cc(OC)c3)c(NC(=O)NC(C)(C)C)nc2n1 strictly below 20%?
A. not fulfilled

Q. Is the reported Population Mitochondria Different-Phenotype (%) for COc1cc(-n2cnc3cc(-c4ccc(Cl)cc4)sc3c2=O)ccc1OCCN1CCCC1 strictly below 20%?
A. not fulfilled

Q. Is the reported Population Mitochondria Different-Phenotype (%) for CC(C)NCC(O)COc1ccc(CCOCC2CC2)cc1.Cl (stereo not drawn) [BETAXOLOL HYDROCHLORIDE] strictly below 20%?
A. fulfilled

Q. Is the reported Population Mitochondria Different-Phenotype (%) for Cl.N#Cc1ccc2[nH]cc(CCCCN3CCN(c4ccc5oc(C(N)=O)cc5c4)CC3)c2c1 [VILAZODONE HYDROCHLORIDE] strictly below 20%?
A. not fulfilled

Q. Is the reported Population Mitochondria Different-Phenotype (%) for CN1CCC[C@@H]1CCO[C@](C)(c1ccccc1)c1ccc(Cl)cc1.O=C(O)/C=C/C(=O)O [CLEMASTINE FUMARATE] strictly below 20%?
A. fulfilled

====

Please respond with reported Population Tubulin-Different-Phenotype (%) for every item in the list.
# System: U2OS
# Test details: Multiplex assay against U2OS
# Format: toxicity, cell-based
# Condition parameters: human, 24 h, 10 µM, compound concentration 10 uM, replicate 1
Note: unit % is implicit; provide only the numeric part.

// recorded Population Tubulin-Different-Phenotype (%) for Cn1cc(-c2[nH]c3cc(NC(=O)[C@H](N)C4CCCCC4)cc4c3c2C=NNC4=O)cn1 : 19

// recorded Population Tubulin-Different-Phenotype (%) for Cc1nc(-c2ccc(-c3ccc(C(=O)N4CCc5cc6c(cc54)C4(CCN(C)CC4)CO6)cc3)c(C)c2)no1 : 98

// recorded Population Tubulin-Different-Phenotype (%) for O=C1NCN(c2ccccc2)C12CCN(CCCOc1ccc(F)cc1)CC2 [SPIRAMIDE] : 31

// recorded Population Tubulin-Different-Phenotype (%) for Cc1[nH]c(/C=C2\C(=O)Nc3ccc(S(=O)(=O)N(C)c4cccc(Cl)c4)cc32)c(C)c1C(=O)N1CCN(C)CC1 : 100

====

# System: Fibroblast
# Test details: Multiplex assay against human fibroblast
# Type: toxicity, cell-based
# Condition parameters: 12 h, 10 µM, compound concentration 10 uM, replicate 2
Please respond with reported Population Normal (%) for every item in the list.
Note: unit % is implicit; provide only the numeric part.

// recorded Population Normal (%) for COc1cc(-n2cnc3cc(-c4ccc(Cl)cc4)sc3c2=O)ccc1OCCN1CCCC1 : 91

// recorded Population Normal (%) for CN(C)CC#Cc1ccc(OCCCc2sc(N3CCc4cccc(C(=O)Nc5nc6ccccc6s5)c4C3)nc2C(=O)O)c(F)c1 : 94

// recorded Population Normal (%) for O=C1NCN(c2ccccc2)C12CCN(CCCOc1ccc(F)cc1)CC2 [SPIRAMIDE] : 91

// recorded Population Normal (%) for Cc1sc2c(c1C)C(c1ccc(Cl)cc1)=N[C@@H](CC(=O)OC(C)(C)C)c1nnc(C)n1-2 : 75
